Molecular target: alpha 2C receptor (Homo sapiens, UniProt P18825)
Construct: expressed in transfected cells; host or cells: NIH-3T3 cells
Sequence (P18825 1-462): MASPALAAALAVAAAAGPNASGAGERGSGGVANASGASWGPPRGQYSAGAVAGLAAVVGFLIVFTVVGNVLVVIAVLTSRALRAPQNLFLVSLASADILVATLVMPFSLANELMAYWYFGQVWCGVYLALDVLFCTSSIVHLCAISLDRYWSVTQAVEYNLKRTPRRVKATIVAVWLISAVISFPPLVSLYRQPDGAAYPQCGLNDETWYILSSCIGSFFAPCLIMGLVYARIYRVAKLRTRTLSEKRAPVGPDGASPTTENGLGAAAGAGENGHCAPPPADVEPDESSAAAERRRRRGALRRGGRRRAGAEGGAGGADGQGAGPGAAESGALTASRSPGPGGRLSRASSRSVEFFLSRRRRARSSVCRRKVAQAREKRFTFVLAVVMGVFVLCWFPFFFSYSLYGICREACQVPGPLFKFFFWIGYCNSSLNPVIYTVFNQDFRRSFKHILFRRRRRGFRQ
Test: RSAT (Receptor Selection and Amplification Technology) assay, alpha 2C
Format: cell-based
Settings: NIH-3T3 cells cotransfected with receptor and Gq/i5; ratio of maximal effect to that of standard full agonist brimonidine (UK14304)
Description: The RSAT assay measures a receptor-mediated loss of contact inhibition that results in selective proliferation of receptor-containing cells in a mixed population of confluent cells. The increase in cell number is assessed with an appropriate transfected marker gene such as β-galactosidase, the activity of which can be easily measured in a 96-well format. Receptors that activate the G protein, Gq, elicit this response. […]
recorded-metric: Alpha 2C intrinsic activity (efficacy), value in parentheses

[
  {
    "compound": "Cc1cccc(C(Cc2ccccc2)c2c[nH]cn2)c1C (centres unmarked)",
    "experimental-value": ".36"
  },
  {
    "compound": "Clc1cccc(C(Cc2ccccc2)c2c[nH]cn2)c1Cl (centres unmarked)",
    "experimental-value": ".41"
  }
]

---

Biological target: alpha 2A receptor (Homo sapiens, UniProt P08913)
Construct: expressed in transfected cells; host or cells: NIH-3T3 cells
Sequence (P08913 whole entry): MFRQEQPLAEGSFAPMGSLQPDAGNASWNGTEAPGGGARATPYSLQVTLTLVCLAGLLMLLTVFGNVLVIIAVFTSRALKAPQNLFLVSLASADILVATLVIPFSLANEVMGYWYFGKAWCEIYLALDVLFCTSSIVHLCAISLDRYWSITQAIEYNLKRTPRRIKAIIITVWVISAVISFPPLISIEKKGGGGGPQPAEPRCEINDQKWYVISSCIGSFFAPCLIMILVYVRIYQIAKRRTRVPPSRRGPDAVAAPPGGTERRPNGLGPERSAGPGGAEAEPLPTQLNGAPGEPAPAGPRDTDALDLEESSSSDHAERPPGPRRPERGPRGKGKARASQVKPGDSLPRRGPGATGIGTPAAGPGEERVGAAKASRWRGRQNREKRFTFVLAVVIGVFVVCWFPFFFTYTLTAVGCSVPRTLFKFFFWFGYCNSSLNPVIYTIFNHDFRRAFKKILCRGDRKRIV
Assay: RSAT (Receptor Selection and Amplification Technology) assay, alpha 2A
Type: cell-based
Settings: NIH-3T3 cells cotransfected with receptor and Gq/i5; ratio of maximal effect to that of standard full agonist brimonidine (UK14304)
recorded-metric: Alpha 2A intrinsic activity (efficacy), value in parentheses

[
  {
    "molecule": "Fc1cccc(C(Cc2ccccc2)c2c[nH]cn2)c1F (centres unmarked)",
    "experimental-value": "No Data (.04)"
  },
  {
    "molecule": "Fc1ccccc1C(Cc1ccccc1)c1c[nH]cn1 (centres unmarked)",
    "experimental-value": "No Data (.04)"
  }
]

---

Molecular target: alpha 2C receptor (Homo sapiens, UniProt P18825)
Construct: expressed in transfected cells; host or cells: NIH-3T3 cells
Assay: RSAT (Receptor Selection and Amplification Technology) assay, alpha 2C
Assay type: cell-based

[
  {
    "molecule": "Cc1cccc(C(Cc2ccccc2)c2c[nH]cn2)c1C (stereo not shown)",
    "target-desc": "alpha 2C receptor (Homo sapiens, UniProt P18825)",
    "EC50 (nM)": 26
  }
]

---

Below: a set of entries, each annotated with reported EC50.
Biological target: alpha 2B receptor (Homo sapiens, UniProt P18089)
Construct: expressed in transfected cells; host or cells: NIH-3T3 cells
Sequence (P18089 whole entry): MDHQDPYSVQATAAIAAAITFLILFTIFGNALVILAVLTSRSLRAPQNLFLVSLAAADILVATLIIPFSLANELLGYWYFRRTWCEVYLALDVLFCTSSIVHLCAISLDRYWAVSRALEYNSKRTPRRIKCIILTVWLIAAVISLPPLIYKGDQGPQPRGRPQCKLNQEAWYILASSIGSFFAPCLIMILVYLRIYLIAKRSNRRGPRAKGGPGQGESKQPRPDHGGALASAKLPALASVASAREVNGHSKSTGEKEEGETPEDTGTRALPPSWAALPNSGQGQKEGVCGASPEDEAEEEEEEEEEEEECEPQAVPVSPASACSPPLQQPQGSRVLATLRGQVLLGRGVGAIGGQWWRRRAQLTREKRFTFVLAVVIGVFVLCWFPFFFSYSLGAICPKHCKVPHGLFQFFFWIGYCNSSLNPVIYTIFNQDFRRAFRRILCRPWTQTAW
Experiment: RSAT (Receptor Selection and Amplification Technology) assay, alpha 2B
Type: cell-based

[
  {
    "molecule": "Clc1cccc(/C(=C/c2ccccc2)c2c[nH]cn2)c1",
    "unit-string": "nM",
    "EC50": 7.8
  },
  {
    "molecule": "c1ccc(CC(c2ccncc2)c2c[nH]cn2)cc1 (centres unmarked)",
    "unit-string": "nM",
    "EC50": 66
  },
  {
    "molecule": "Fc1ccccc1C(Cc1ccccc1)c1c[nH]cn1 (centres unmarked)",
    "unit-string": "nM",
    "EC50": 3.5
  },
  {
    "molecule": "c1ccc(CC(c2ccccc2)c2c[nH]cn2)cc1 (centres unmarked)",
    "unit-string": "nM",
    "EC50": 2.8
  },
  {
    "molecule": "Cc1cccc(C(Cc2ccccc2)c2c[nH]cn2)c1C (centres unmarked)",
    "unit-string": "nM",
    "EC50": 2.09
  }
]
